Tested on: methicillin resistant Staphylococcus aureus (MRSA) biofilm
Conditions: approximate peptide concentration […] (around 3 μg/ml); compared to untreated samples
Method: Methods of assessment of anti-biofilm activity—Biofilm formation was initially analyzed using a static abiotic solid surface assay as described elsewhere (de la Fuente-Nunez et al., 2012). […] Peptide was added at time zero (prior to adding the diluted, overnight cultures) in varying concentrations, and the decrease in biofilm formation was recorded at 22-46 h for most bacteria. […]
Ends that are not written are not given here.
Catalogue of % Biofilm inhibition readings, one per entry.
A number alone suffices; assume %.

>>> value_measured("1018-W11: single substituted 1018 peptide (VRLIVAVRIWWR-NH2) [Peptide 1018-W11]")
53

get_value(item= HH2-Q11: single substituted HH2 peptide (VQLRIRVAVIQA-NH2) , readout=% Biofilm inhibition) returns 63

get_value(item= 1002-G2: single substituted 1002 peptide (VGRWLIVWRIRK-NH2) [Peptide 1002-G2] , readout=% Biofilm inhibition) returns 74

get_value(item= 1018-L8: single substituted 1018 peptide (VRLIVAVLIWRR-NH2) [Peptide 1018-L8] , readout=% Biofilm inhibition) returns 40

get_value(item= HH2-W2: single substituted HH2 peptide (VWLRIRVAVIRA-NH2) , readout=% Biofilm inhibition) returns 70

get_value(item= HH2-W11: single substituted HH2 peptide (VQLRIRVAVIWA-NH2) , readout=% Biofilm inhibition) returns 45

get_value(item= 1018-K10: single substituted 1018 peptide (VRLIVAVRIKRR-NH2) [Peptide 1018-K10] , readout=% Biofilm inhibition) returns 63

Reference for the values: patent US20190315823A1
